This collection of values is drawn from ChEMBL document CHEMBL1123489.

Tested on: L1210
assay.notes: Compound was tested in vitro for alkylating activity against L1210 leukemia cells in tumor bearing mice
Format: functional, Mus musculus
measurement.label: Activity
# answer = number (no unit)

compound: Cc1cn(C2CC(NC(=O)N(CCCl)N=O)C(CO)O2)c(=O)[nH]c1=O (centres undefined)
Activity: 2

Per the reported L1210 data, O=NN(CCCl)C(=O)N[C@@H]1CC(n2cc(F)c(=O)[nH]c2=O)O[C@@H]1CO (some centres undefined) has Activity of 1.78

Per the reported L1210 data, O=NN(CCCl)C(=O)NCCCl [CARMUSTINE] has Activity of 1

Per the reported L1210 data, O=NN(CCCl)C(=O)N[C@@H]1CC(n2ccc(=O)[nH]c2=O)O[C@@H]1CO (some centres undefined) has Activity of 1.65

----------
Tested on: L1210
assay.notes: Compound was tested in vitro for carbomoylating activity against L1210 leukemia cells in tumor bearing mice
Type: functional, Mus musculus
measurement.label: Activity
# answer = number (no unit)

Guide cases for Activity, answers given:
molecule: Cc1cn(C2CC(NC(=O)N(CCCl)N=O)C(CO)O2)c(=O)[nH]c1=O (centres undefined)
Activity: 0.85

molecule: O=NN(CCCl)C(=O)N[C@@H]1CC(n2cc(F)c(=O)[nH]c2=O)O[C@@H]1CO (some centres undefined)
Activity: 0.77

molecule: O=NN(CCCl)C(=O)NCCCl
Activity: 1

Now let's try a different one.
Short answer for O=NN(CCCl)C(=O)N[C@@H]1CC(n2ccc(=O)[nH]c2=O)O[C@@H]1CO (some centres undefined) : Activity was 0.85

----------
assay.notes: Half-life, determined by incubation at 37 degree celsius in PBS (pH 7.4)
measurement.label: half-life (min)
Field: numeric (min). Do not append units.

Guide cases for half-life, answers given:
molecule: Cc1cn(C2CC(NC(=O)N(CCCl)N=O)C(CO)O2)c(=O)[nH]c1=O (centres undefined)
result.units: min
half-life: 37.3

molecule: O=NN(CCCl)C(=O)NCCCl
result.units: min
half-life: 50

molecule: O=NN(CCCl)C(=O)N[C@@H]1CC(n2cc(F)c(=O)[nH]c2=O)O[C@@H]1CO (some centres undefined)
result.units: min
half-life: 36.1

Short answer for O=NN(CCCl)C(=O)N[C@@H]1CC(n2ccc(=O)[nH]c2=O)O[C@@H]1CO (some centres undefined) : half-life was 27.3
